Below, each of the binders is paired with its reported Kd value.
Target: DS-Cav1 (RSV F-protein, pre-form, in-house) (respiratory syncytial virus (RSV), UniProt P03420 26-513)
Sequence (P03420 26-524): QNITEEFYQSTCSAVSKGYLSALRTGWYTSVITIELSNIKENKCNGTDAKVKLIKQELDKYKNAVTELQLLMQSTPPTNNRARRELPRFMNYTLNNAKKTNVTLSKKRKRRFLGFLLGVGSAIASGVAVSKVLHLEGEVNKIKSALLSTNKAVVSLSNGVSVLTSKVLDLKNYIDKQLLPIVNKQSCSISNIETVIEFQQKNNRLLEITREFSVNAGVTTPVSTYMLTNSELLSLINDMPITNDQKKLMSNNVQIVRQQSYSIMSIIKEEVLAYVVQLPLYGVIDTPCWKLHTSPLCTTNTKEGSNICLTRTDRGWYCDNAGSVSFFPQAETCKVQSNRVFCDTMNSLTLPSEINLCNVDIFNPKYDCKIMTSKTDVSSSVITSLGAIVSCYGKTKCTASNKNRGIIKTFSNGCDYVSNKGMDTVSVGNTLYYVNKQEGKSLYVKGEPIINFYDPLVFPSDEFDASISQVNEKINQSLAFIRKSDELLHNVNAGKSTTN
Assay: ELISA, coated DS-Cav1, IgG titrated

# binder, Kd
records = [
    ("2H9 (antibody, V domains shown, IgG made in Expi293; also called #18; 18) VH: QVTLKESGGGLVKPGGSLRLSCAASGFTFTSYRMHWVRQAPGKGLEWVSSITGGGNYIEYADSVKGRFTISRDNAKNSLDLQMNSLRAEDTAIYYCARDMYGLGSYYSPNYFDPWGQGTLVTVSS VL: SYELTQPLSVSGAPGQRVTISCTGSSSNIGAGYDVHWYQQVPGTAPKLLIFGSTNRPSGVPDRFSGSKSGASASLAITGLQADDEADYYCQSYDRSLSHVFGTGTKVTVLG", "~0.38 nM"),
]

Switching to the query record.
4E9 (antibody, V domains shown, IgG made in Expi293; also called #48; 48) VH: QVQLVQSGAEVKKPGSSVKVSCKASGYTFTDYGLSWVRQAPGHGLEWMGWITAYNGDTNYAQKFQDRLSVTTDISTSTAYMELRSLKSDDTAVYYCARHVFCSGDGCYSGLGSWGQGTLVTVSS VL: QSVLTQPPSVSGAPGQRVTISCSGSSSNVGSNTVNWYQQLPGTAPKLLIYDKNERPSGVPDRFSASKSGTSSSLAIGGLRSEDEADYYCGTWDDNLNGWVFGGGTKLTVLG yielded Kd of ~0.7 nM

Entry source: patent US20240182547A1
